// provenance: ChEMBL document CHEMBL4422621

TARGET DESC: ABCB1 (P-gp) (Homo sapiens)
Sequence (P08183 whole entry): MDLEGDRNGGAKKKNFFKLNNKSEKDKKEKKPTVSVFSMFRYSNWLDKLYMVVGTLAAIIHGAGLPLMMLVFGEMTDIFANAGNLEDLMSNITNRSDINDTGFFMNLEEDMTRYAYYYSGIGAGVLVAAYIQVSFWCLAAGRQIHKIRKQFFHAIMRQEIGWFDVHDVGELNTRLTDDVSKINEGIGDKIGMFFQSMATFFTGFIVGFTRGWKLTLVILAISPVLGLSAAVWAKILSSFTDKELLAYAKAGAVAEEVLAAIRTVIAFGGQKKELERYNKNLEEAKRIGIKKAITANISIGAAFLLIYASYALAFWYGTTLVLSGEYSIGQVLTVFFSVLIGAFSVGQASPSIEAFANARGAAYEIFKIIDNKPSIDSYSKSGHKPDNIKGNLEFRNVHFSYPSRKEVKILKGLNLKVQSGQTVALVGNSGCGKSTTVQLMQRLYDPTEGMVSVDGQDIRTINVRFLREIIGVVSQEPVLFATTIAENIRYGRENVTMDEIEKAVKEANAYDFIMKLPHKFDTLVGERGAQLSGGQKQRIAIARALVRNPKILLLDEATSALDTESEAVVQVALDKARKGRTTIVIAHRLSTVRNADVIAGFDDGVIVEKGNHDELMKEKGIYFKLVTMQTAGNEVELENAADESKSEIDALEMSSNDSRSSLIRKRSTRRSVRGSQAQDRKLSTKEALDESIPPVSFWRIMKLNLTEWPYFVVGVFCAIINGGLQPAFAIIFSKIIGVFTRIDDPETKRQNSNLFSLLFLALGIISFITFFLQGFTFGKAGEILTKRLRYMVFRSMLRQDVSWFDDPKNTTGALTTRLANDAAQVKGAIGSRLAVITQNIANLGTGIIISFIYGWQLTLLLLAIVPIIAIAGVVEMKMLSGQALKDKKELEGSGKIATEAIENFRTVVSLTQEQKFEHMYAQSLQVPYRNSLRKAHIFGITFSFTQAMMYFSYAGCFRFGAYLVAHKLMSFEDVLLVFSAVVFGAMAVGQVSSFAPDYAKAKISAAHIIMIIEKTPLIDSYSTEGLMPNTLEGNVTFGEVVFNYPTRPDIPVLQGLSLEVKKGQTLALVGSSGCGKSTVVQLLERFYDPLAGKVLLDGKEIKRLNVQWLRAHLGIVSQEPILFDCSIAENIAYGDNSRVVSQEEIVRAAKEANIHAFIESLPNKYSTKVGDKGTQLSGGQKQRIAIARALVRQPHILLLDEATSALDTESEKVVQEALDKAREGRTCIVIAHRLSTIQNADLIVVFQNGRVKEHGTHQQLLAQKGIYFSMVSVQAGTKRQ
TEST METHOD NOTES: Inhibition of ABCB1 in human A2780/ADR cells preincubated for 30 mins followed by calcein AM addition and measured every 60 secs for 1 hr by fluorescence assay
Type: cell-based
STUDY CONDITIONS: human, A2780/ADR cells, probe calcein AM; read-out: Imax
PROPERTY MEASURED: Emax at 1 h (%)
Numbers only, in %.

Problem: Determine its reported Emax at 1 h: COc1ccc(-c2c(OCC(=O)Nc3cccc4ccccc34)oc3ccccc3c2=O)cc1
Result: 51

----------
TARGET DESC: Broad substrate specificity ATP-binding cassette transporter ABCG2 (Homo sapiens, UniProt Q9UNQ0)
Sequence (Q9UNQ0 whole entry): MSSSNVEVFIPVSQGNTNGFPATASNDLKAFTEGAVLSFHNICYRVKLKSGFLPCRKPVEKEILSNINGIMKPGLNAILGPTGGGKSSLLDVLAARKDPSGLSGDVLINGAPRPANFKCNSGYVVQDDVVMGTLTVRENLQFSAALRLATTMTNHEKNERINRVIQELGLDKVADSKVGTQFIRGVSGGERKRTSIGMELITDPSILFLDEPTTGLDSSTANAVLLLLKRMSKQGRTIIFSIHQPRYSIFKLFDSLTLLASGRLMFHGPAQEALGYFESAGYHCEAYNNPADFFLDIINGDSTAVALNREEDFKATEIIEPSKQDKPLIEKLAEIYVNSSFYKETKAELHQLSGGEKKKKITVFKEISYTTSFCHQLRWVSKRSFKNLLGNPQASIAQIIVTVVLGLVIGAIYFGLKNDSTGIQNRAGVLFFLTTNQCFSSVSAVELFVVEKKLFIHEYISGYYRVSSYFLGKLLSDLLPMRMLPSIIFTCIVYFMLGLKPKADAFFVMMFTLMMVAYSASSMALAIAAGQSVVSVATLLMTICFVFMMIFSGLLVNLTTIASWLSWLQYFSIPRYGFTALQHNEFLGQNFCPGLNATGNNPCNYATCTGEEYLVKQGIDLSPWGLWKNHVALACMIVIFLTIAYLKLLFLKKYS
TEST METHOD NOTES: Inhibition of ABCG2 (unknown origin) expressed in MDCK II BCRP cells assessed as effect on pheophorbide A accumulation after 120 mins by flow cytometric analysis
The label is Met for IC50 below 7 µM and Not met for IC50 equal to or exceeding 7 µM.

O=C(/C=C/c1cccs1)c1ccccc1O = Not met

Problem: Answer whether the molecule O=C(/C=C/c1ccccc1C(F)(F)F)c1ccc(O)cc1 has IC50 strictly less than 7 µM
Result: Met

Problem: Answer whether the molecule COc1ccc(/C=C/C(=O)c2cccc(OCC(=O)Nc3ccc4c(c3)COC4=O)c2)cc1OC has IC50 strictly less than 7 µM
Result: Not met

Problem: Answer whether the molecule COc1ccc(NC(=O)COc2ccc(C(=O)/C=C/c3c(F)cccc3F)cc2)cc1OC has IC50 strictly less than 7 µM
Result: Met

Problem: Answer whether the molecule COc1cccc(/C=C/C(=O)c2ccc(OCC(=O)Nc3ccc(OC)c(OC)c3)cc2)c1 has IC50 strictly less than 7 µM
Result: Met

Problem: Answer whether the molecule O=C(/C=C/c1ccco1)c1ccccc1O has IC50 strictly less than 7 µM
Result: Not met

Problem: Answer whether the molecule COc1ccc(/C=C/C(=O)c2ccc(OCC(=O)Nc3ccc4c(c3)COC4=O)cc2)cc1OC has IC50 strictly less than 7 µM
Result: Met

Problem: Answer whether the molecule COc1cc(/C=C/C(=O)c2ccc(OCC(=O)Nc3ccc4c(c3)COC4=O)cc2)cc(OC)c1OC has IC50 strictly less than 7 µM
Result: Not met

Problem: Answer whether the molecule COc1cc(-c2c(OCC(=O)Nc3cccc4ccccc34)oc3ccccc3c2=O)cc(OC)c1OC has IC50 strictly less than 7 µM
Result: Not met

Problem: Answer whether the molecule CCCCOc1ccc(/C=C/C(=O)c2ccc(O)cc2)cc1 has IC50 strictly less than 7 µM
Result: Not met

----------
TARGET DESC: Broad substrate specificity ATP-binding cassette transporter ABCG2 (Homo sapiens)
TEST METHOD NOTES: Inhibition of ABCG2 (unknown origin) expressed in MDCK II BCRP cells assessed as effect on pheophorbide A accumulation after 120 mins by flow cytometric analysis
PROPERTY MEASURED: pIC50
Numbers only, as −log10 of the molar value.

Completed entries (count: 6):
COc1cc(C(=O)/C=C/c2cc(OC)c(OC)c(OC)c2)ccc1OCC(=O)Nc1ccc2c(c1)COC2=O = 4.94
O=C(/C=C/c1ccc(OCc2ccccc2)cc1)c1ccc(O)cc1 = 5.04
COc1ccc(/C=C/C(=O)c2ccc(OCC(=O)NCc3ccc4c(c3)OCO4)cc2)cc1 = 5.00
CCOc1ccc(/C=C/C(=O)c2ccc(O)cc2)cc1 = 5.19
CCCOc1ccc(/C=C/C(=O)c2ccc(O)cc2)cc1 = 5.32
O=C(/C=C/c1ccc(OCc2ccc(Cl)cc2)cc1)c1ccc(O)cc1 = 4.70

Working through the 3 molecules below one at a time, give pIC50 for each.
1. COc1ccc(-c2c(OCC(=O)Nc3cccc4ccccc34)oc3ccccc3c2=O)cc1OC
2. CCOc1ccc(/C=C/C(=O)c2ccc(OCC(=O)Nc3ccc4c(c3)COC4=O)cc2)cc1
3. COc1ccc(NC(=O)COc2ccc(C(=O)/C=C/c3ccc(Cl)cc3)cc2)cc1OC

Result:
1: 5.43; 2: 4.70; 3: 5.16

Working through the 8 molecules below one at a time, give pIC50 for each.
1. COc1cc(/C=C/C(=O)c2ccc(OCC(=O)NCc3ccc4c(c3)OCO4)cc2)cc(OC)c1OC
2. COc1cc(-c2oc3ccccc3c(=O)c2OCC(=O)Nc2ccc3c(c2)COC3=O)cc(OC)c1OC
3. COc1cc(/C=C/C(=O)c2cccc(O)c2)cc(OC)c1OC
4. COc1ccc(/C=C/C(=O)c2cccc(OCC(=O)Nc3ccc(OC)c(OC)c3)c2)cc1OC
5. O=C(COc1cccc(C(=O)/C=C/c2ccccc2)c1)Nc1ccc2c(c1)COC2=O
6. COc1cc(/C=C/C(=O)c2cccc(OCC(=O)Nc3ccc4c(c3)COC4=O)c2)cc(OC)c1OC
7. O=C(COc1c(-c2ccccc2)oc2ccccc2c1=O)Nc1ccc2c(c1)COC2=O
8. COc1ccc(NC(=O)COc2ccc(C(=O)/C=C/c3cc(OC)c(OC)c(OC)c3)cc2)cc1OC

Result:
[5.16, 5.05, 5.37, 5.20, 5.22, 5.00, 4.88, 5.47]

Working through the 2 molecules below one at a time, give pIC50 for each.
1. COc1ccc(-c2c(OCC(=O)Nc3cccc4ccccc34)oc3ccccc3c2=O)cc1
2. O=C(/C=C/c1cccs1)c1ccc(O)cc1

Result:
1. 5.29
2. 4.74

Working through the 2 molecules below one at a time, give pIC50 for each.
1. O=C(/C=C/c1c(F)cccc1F)c1ccc(O)cc1
2. COc1cc(C(=O)/C=C/c2cc(OC)c(OC)c(OC)c2)ccc1O

Result:
1. 5.14
2. 5.71

----------
Provide the reported pIC50 of each item.
TARGET DESC: Broad substrate specificity ATP-binding cassette transporter ABCG2 (Homo sapiens, UniProt Q9UNQ0)
TEST METHOD NOTES: Inhibition of ABCG2 (unknown origin) expressed in MDCK II BCRP cells assessed as effect on pheophorbide A accumulation after 120 mins by flow cytometric analysis
Numbers only, as −log10 of the molar value.

Completed entries (count: 2):
COc1ccc(NC(=O)COc2ccc(C(=O)/C=C/c3ccco3)cc2)cc1OC = 5.27
O=C(COc1c(-c2ccccc2Cl)oc2ccccc2c1=O)Nc1ccc2c(c1)COC2=O = 5.54

Problem: Determine its reported pIC50: O=C(COc1ccc(C(=O)/C=C/c2c(F)cccc2F)cc1)Nc1ccc2c(c1)COC2=O
Result: 4.96

----------
Provide the reported GI50 at 72 h of each item.
TEST METHOD NOTES: Growth inhibition of human A2780 cells after 72 hrs by MTT assay
Format: cell-based
Answers are plain numbers, in µM.

COc1ccc(-c2c(OCC(=O)Nc3cccc4ccccc34)oc3ccccc3c2=O)cc1OC = 43.6
O=C(COc1c(-c2ccccc2Cl)oc2ccccc2c1=O)Nc1ccc2c(c1)COC2=O = 61.1

// next entry
Problem: Determine its reported GI50 at 72 h: Cc1ccc(-c2c(OCC(=O)Nc3cccc4ccccc34)oc3ccccc3c2=O)cc1
Result: 68.7
